- System: Klebsiella pneumoniae
- procedureText: Antibacterial activity against Klebsiella pneumoniae after 48 hrs by agar well diffusion method
- Assay type: functional
# note: exactly 40 µg/mL is not below, so it is not met; use met for MIC strictly under it

* [Br-].[Br-].c1cc2cc(c1)C[n+]1cn(c3ccccc31)Cc1cc3ccccc3nc1Oc1ccccc1Oc1nc3ccccc3cc1Cn1c[n+](c3ccccc31)C2 | not met

INPUT: Answer whether the compound [Br-].[Br-].c1cc2nc(c1)C[n+]1ccn(c1)Cc1cc3ccccc3nc1Oc1ccc3ccccc3c1-c1c(ccc3ccccc13)Oc1nc3ccccc3cc1Cn1cc[n+](c1)C2 has MIC strictly less than 40 µg/mL
OUTPUT: met

INPUT: Now give it for [Br-].[Br-].c1cc2cc(c1)C[n+]1ccn(c1)Cc1cc3ccccc3nc1Oc1ccc3ccccc3c1-c1c(ccc3ccccc13)Oc1nc3ccccc3cc1Cn1cc[n+](c1)C2 too.
OUTPUT: met

INPUT: What about this compound? [Br-].[Br-].c1cc2nc(c1)C[n+]1ccn(c1)Cc1cc3ccccc3nc1Oc1ccccc1Oc1nc3ccccc3cc1Cn1cc[n+](c1)C2
OUTPUT: met

INPUT: Likewise for [Br-].[Br-].c1cc2cc(c1)C[n+]1cn(c3ccccc31)Cc1cc3ccccc3nc1Oc1ccc3ccccc3c1-c1c(ccc3ccccc13)Oc1nc3ccccc3cc1Cn1c[n+](c3ccccc31)C2 ?
OUTPUT: met

INPUT: Another compound to check: [Br-].[Br-].c1cc2nc(c1)C[n+]1cn(c3ccccc31)Cc1cc3ccccc3nc1Oc1ccccc1Oc1nc3ccccc3cc1Cn1c[n+](c3ccccc31)C2
OUTPUT: not met

INPUT: // repeat for CN[C@@H]1[C@H](O[C@H]2[C@H](O[C@H]3[C@H](O)[C@@H](O)[C@H](N=C(N)N)[C@@H](O)[C@@H]3N=C(N)N)O[C@@H](C)[C@]2(O)C=O)O[C@@H](CO)[C@H](O)[C@H]1O and report
OUTPUT: met

INPUT: Again, but for [Br-].[Br-].c1cc2nc(c1)C[n+]1cn(c3ccccc31)Cc1cc3ccccc3nc1Oc1ccc3ccccc3c1-c1c(ccc3ccccc13)Oc1nc3ccccc3cc1Cn1c[n+](c3ccccc31)C2
OUTPUT: met

###

- Tested on: Vibrio cholerae
- procedureText: Antibacterial activity against Vibrio cholerae after 48 hrs by agar well diffusion method
- Type: functional
# reported MIC; entries follow
Field format: number, assumed µg/mL, no unit text.

Below are worked cases with known answers.
- [Br-].[Br-].c1cc2nc(c1)C[n+]1ccn(c1)Cc1cc3ccccc3nc1Oc1ccccc1Oc1nc3ccccc3cc1Cn1cc[n+](c1)C2: 15
- [Br-].[Br-].c1cc2cc(c1)C[n+]1ccn(c1)Cc1cc3ccccc3nc1Oc1ccc3ccccc3c1-c1c(ccc3ccccc13)Oc1nc3ccccc3cc1Cn1cc[n+](c1)C2: 10
- [Br-].[Br-].c1cc2nc(c1)C[n+]1cn(c3ccccc31)Cc1cc3ccccc3nc1Oc1ccccc1Oc1nc3ccccc3cc1Cn1c[n+](c3ccccc31)C2: 30

Read the next record carefully.
INPUT: // lookup MIC | system=Vibrio cholerae | key= [Br-].[Br-].c1cc2cc(c1)C[n+]1cn(c3ccccc31)Cc1cc3ccccc3nc1Oc1ccc3ccccc3c1-c1c(ccc3ccccc13)Oc1nc3ccccc3cc1Cn1c[n+](c3ccccc31)C2
OUTPUT: 10

###

- Test system: Staphylococcus aureus
- procedureText: Antibacterial activity against Staphylococcus aureus after 48 hrs by agar well diffusion method
- Assay type: functional
Recorded MIC, one value per entry.

Consider the following illustrative entries.
- [Br-].[Br-].c1cc2nc(c1)C[n+]1ccn(c1)Cc1cc3ccccc3nc1Oc1ccccc1Oc1nc3ccccc3cc1Cn1cc[n+](c1)C2: 30 µg/mL
- [Br-].[Br-].c1cc2nc(c1)C[n+]1cn(c3ccccc31)Cc1cc3ccccc3nc1Oc1ccccc1Oc1nc3ccccc3cc1Cn1c[n+](c3ccccc31)C2: 35 µg/mL
- [Br-].[Br-].c1cc2cc(c1)C[n+]1cn(c3ccccc31)Cc1cc3ccccc3nc1Oc1ccc3ccccc3c1-c1c(ccc3ccccc13)Oc1nc3ccccc3cc1Cn1c[n+](c3ccccc31)C2: 15 µg/mL
- [Br-].[Br-].c1cc2cc(c1)C[n+]1ccn(c1)Cc1cc3ccccc3nc1Oc1ccccc1Oc1nc3ccccc3cc1Cn1cc[n+](c1)C2: 45 µg/mL

INPUT: Bench note: what MIC did CN[C@@H]1[C@H](O[C@H]2[C@H](O[C@H]3[C@H](O)[C@@H](O)[C@H](N=C(N)N)[C@@H](O)[C@@H]3N=C(N)N)O[C@@H](C)[C@]2(O)C=O)O[C@@H](CO)[C@H](O)[C@H]1O show?
OUTPUT: 25 µg/mL

INPUT: And then [Br-].[Br-].c1cc2cc(c1)C[n+]1cn(c3ccccc31)Cc1cc3ccccc3nc1Oc1ccccc1Oc1nc3ccccc3cc1Cn1c[n+](c3ccccc31)C2 , what is it?
OUTPUT: 45 µg/mL

This collection of values is drawn from ChEMBL document CHEMBL1137000.
